Ki values for the compounds below.
Target: Carbonic anhydrase 2 (Homo sapiens)
// return numeric value only (unit: nM, not printed)

Answered examples (5):
| compound | units_label | Ki |
| --- | --- | --- |
| NS(=O)(=O)c1cc2c(s1)SCCC2=O | nM | 3.63 |
| NS(=O)(=O)c1cc2c(s1)C(O)CCS2(=O)=O (stereo unspecified) | nM | 30.5 |
| NS(=O)(=O)c1cc2c(s1)C(O)CCS2 (stereo unspecified) | nM | 14.2 |
| NS(=O)(=O)c1cc2c(s1)C(=O)CCS2(=O)=O | nM | 14.1 |
| NS(=O)(=O)c1cc2c(s1)SCCC2O (stereo unspecified) | nM | 28 |

Okay, now this compound:
Ask | Reported Ki, compound NS(=O)(=O)c1cc2c(s1)C(=O)CCS2 : ____
Reply | 1.15

---

solubility values for the molecules below.
Assay: Solubility (pH 7.4 buffer ar 25 degree C)
Type: physicochemical
Conditions: read-out: S
// return numeric value only (unit: µg/mL, not printed)

Answered examples (8):
| molecule | units_label | solubility |
| --- | --- | --- |
| NS(=O)(=O)c1cc2c(s1)S(=O)(=O)CC[C@@H]2O | µg/mL | 6400 |
| NS(=O)(=O)c1cc2c(s1)SCCC2O (configuration not stated) | µg/mL | 640 |
| NS(=O)(=O)c1cc2c(s1)C(O)CCS2(=O)=O (configuration not stated) | µg/mL | 15000 |
| NS(=O)(=O)c1cc2c(s1)[S+]([O-])CCC2O (configuration not stated) | µg/mL | 12000 |
| CCOc1ccc2nc(S(N)(=O)=O)sc2c1 [ETHOXZOLAMIDE] | µg/mL | 24 |
| NS(=O)(=O)c1cc2c(s1)S(=O)(=O)CC[C@H]2O | µg/mL | 6300 |
| NS(=O)(=O)c1cc2c(s1)S(=O)(=O)CC(O)C2 (configuration not stated) | µg/mL | 8200 |
| NS(=O)(=O)c1cc2c(s1)C(O)CC[S+]2[O-] (configuration not stated) | µg/mL | 7200 |

Ask | Reported solubility, molecule NS(=O)(=O)c1cc2c(s1)C(O)CCS2 (configuration not stated) : ____
Reply | 1400

Ask | Reported solubility, molecule NS(=O)(=O)c1cc2c(s1)CC(O)CS2(=O)=O (configuration not stated) : ____
Reply | 7300

Ask | Reported solubility, molecule NS(=O)(=O)c1cc2c(s1)C(=O)CCS2(=O)=O : ____
Reply | 60

Ask | Reported solubility, molecule NS(=O)(=O)c1cc2c(s1)S(=O)(=O)CCC2 : ____
Reply | 560

---

Experiment: Partition coefficient determined in 1-octanol buffer pH 7.4
Format: physicochemical
Conditions: octanol/water
test_readout: Partition coefficient

| compound | Partition coefficient |
| --- | --- |
| NS(=O)(=O)c1cc2c(s1)C(=O)CCS2(=O)=O | 0.63 |
| NS(=O)(=O)c1cc2c(s1)S(=O)(=O)CCC2=O | 0.92 |
| NS(=O)(=O)c1cc2c(s1)CC(O)CS2(=O)=O (configuration not stated) | 0.2 |
| NS(=O)(=O)c1cc2c(s1)C(O)CCS2 (configuration not stated) | 3 |
| NS(=O)(=O)c1cc2c(s1)S(=O)(=O)CC[C@H]2O | 0.42 |
| NS(=O)(=O)c1cc2c(s1)S(=O)(=O)CCC2O (configuration not stated) | 0.45 |

Okay, now this compound:
Ask | Reported Partition coefficient, compound NS(=O)(=O)c1cc2c(s1)S(=O)(=O)CC[C@@H]2O : ____
Reply | 0.42

---

Molecular target: Carbonic anhydrase 2 (Homo sapiens, UniProt P00918)
Please respond with label 1 when measured Ki is strictly beneath 7 nM, and with label 0 in all other cases.

Examples from the recorded data:
| compound | system_under_test | answer_label |
| --- | --- | --- |
| NS(=O)(=O)c1cc2c(s1)S(=O)(=O)CCC2 | Carbonic anhydrase 2 (Homo sapiens, UniProt P00918) | label 1 |
| NS(=O)(=O)c1cc2c(s1)CC(O)CS2(=O)=O (stereo not given) | Carbonic anhydrase 2 (Homo sapiens, UniProt P00918) | label 0 |
| NS(=O)(=O)c1cc2c(s1)[S+]([O-])CCC2O (stereo not given) | Carbonic anhydrase 2 (Homo sapiens, UniProt P00918) | label 0 |

Query compound follows.
Ask | Given NS(=O)(=O)c1cc2c(s1)C(O)CC[S+]2[O-] (stereo not given) , is recorded Ki strictly lower than 7 nM?
Reply | label 0

---

Target: Carbonic anhydrase 2 (Homo sapiens, UniProt P00918)
pIC50: −log10 of the molar value.
Answer NO if pIC50 is under 8, and YES if it is 8 or more.

Examples from the recorded data:
| molecule | answer_label |
| --- | --- |
| NS(=O)(=O)c1cc2c(s1)C(=O)CCS2 | YES |
| NS(=O)(=O)c1cc2c(s1)S(=O)(=O)CCC2 | YES |
| NS(=O)(=O)c1cc2c(s1)C(=O)CCS2(=O)=O | NO |
| NS(=O)(=O)c1cc2c(s1)SCCC2O (centres undefined) | NO |
| NS(=O)(=O)c1cc2c(s1)[S+]([O-])CCC2O (centres undefined) | NO |

Ask | hey, is pIC50 for this one >= 8? NS(=O)(=O)c1cc2c(s1)C(O)CCS2 (centres undefined)
Reply | NO

Ask | hey, is pIC50 for this one >= 8? NS(=O)(=O)c1cc2c(s1)C(O)CC[S+]2[O-] (centres undefined)
Reply | NO

Ask | hey, is pIC50 for this one >= 8? NS(=O)(=O)c1cc2c(s1)CC(O)CS2(=O)=O (centres undefined)
Reply | NO

---

pKa values for the compounds below.
Experiment: pKa value in 30% EtOH-H20
Format: physicochemical
Conditions: 30% EtOH-H2O
# output: bare number, no unit

| compound | test_readout | number |
| --- | --- | --- |
| NS(=O)(=O)c1cc2c(s1)S(=O)(=O)CCC2=O | pKa | 7.92 |
| NS(=O)(=O)c1cc2c(s1)C(=O)CCS2 | pKa | 8.45 |
| NS(=O)(=O)c1cc2c(s1)S(=O)(=O)CC[C@@H]2O | pKa | 8.3 |

Ask | Reported pKa, compound NS(=O)(=O)c1cc2c(s1)S(=O)(=O)CCC2 : ____
Reply | 8.35

Ask | Reported pKa, compound NS(=O)(=O)c1cc2c(s1)C(O)CCS2 (stereo not given) : ____
Reply | 9

Ask | Reported pKa, compound NS(=O)(=O)c1cc2c(s1)C(=O)CCS2(=O)=O : ____
Reply | 7.32

Ask | Reported pKa, compound NS(=O)(=O)c1cc2c(s1)[S+]([O-])CCC2O (stereo not given) : ____
Reply | 8.68

Ask | Reported pKa, compound NS(=O)(=O)c1cc2c(s1)C(O)CCS2(=O)=O (stereo not given) : ____
Reply | 8.34

Ask | Reported pKa, compound NS(=O)(=O)c1cc2c(s1)S(=O)(=O)CC(O)C2 (stereo not given) : ____
Reply | 8.6

Ask | Reported pKa, compound NS(=O)(=O)c1cc2c(s1)SCCC2O (stereo not given) : ____
Reply | 9.4

Ask | Reported pKa, compound NS(=O)(=O)c1cc2c(s1)C(O)CC[S+]2[O-] (stereo not given) : ____
Reply | 8.82

Ask | Reported pKa, compound NS(=O)(=O)c1cc2c(s1)CC(O)CS2(=O)=O (stereo not given) : ____
Reply | 8.52

Ask | Reported pKa, compound NS(=O)(=O)c1cc2c(s1)S(=O)(=O)CC[C@H]2O : ____
Reply | 8.35

Ask | Reported pKa, compound NS(=O)(=O)c1cc2c(s1)S(=O)(=O)CCC2O (stereo not given) : ____
Reply | 8.35

Ask | Reported pKa, compound NS(=O)(=O)c1cc2c(s1)SCCC2=O : ____
Reply | 8.6

---

Assay: Total solubility measured on pH 7.4 buffer at 25 degree C
Format: ADME
Settings: read-out: S
test_readout: solubility (µg/mL)
// return numeric value only (unit: µg/mL, not printed)

Ask | Reported solubility, molecule NS(=O)(=O)c1cc2c(s1)C(=O)CCS2 : ____
Reply | 80

---

Test: Solubility (pH 7.4 buffer ar 25 degree C)
Assay type: physicochemical
Conditions: read-out: S
solubility values for the compounds below.
// return numeric value only (unit: µg/mL, not printed)

Answered examples (3):
| compound | units_label | number |
| --- | --- | --- |
| CC(C)(C)C(=O)Oc1ccc2nc(S(N)(=O)=O)sc2c1 | µg/mL | 58 |
| NS(=O)(=O)c1cc2c(s1)SCCC2=O | µg/mL | 70 |
| NS(=O)(=O)c1cc2c(s1)S(=O)(=O)CCC2O (centres undefined) | µg/mL | 12500 |

Okay, now this compound:
Ask | Reported solubility, compound NS(=O)(=O)c1cc2c(s1)S(=O)(=O)CCC2=O : ____
Reply | 270
